- Test system: SK-MEL-28 melanoma
- ASSAY_OVERVIEW: NCI-60 one-dose screen, 48 h
- DETAILS: 10 µM unless noted
The panel holds about 83,000 compounds, 20% with a hit somewhere; the sample as a whole holds those more often. Calls of active or inactive are those of the source. The calls were made as follows: active = growth percent below 10; inactive = the rest.
Outcomes: T for active, F for inactive

COMPOUND	ASSAY_SYSTEM	LABEL_VALUE
O=C1C=C[C@]2(C[C@@H](c3cccc(C(F)(F)F)c3)O[C@@H](c3cccc(C(F)(F)F)c3)O2)O1	SK-MEL-28 melanoma	F
COc1ccc(NC(=O)c2nc(-c3cc(OC)c(OC)c(OC)c3)n(-c3cccc4ccccc34)n2)cc1OC	SK-MEL-28 melanoma	F
C[C@H]1[C@H]2[C@H]3CC[C@@H]4[C@@]5(C)C/C(=C/c6ccco6)C(=O)C(C)(C)[C@@H]5CC[C@@]4(C)[C@]3(C)CC[C@]23CO[C@]1(C)[C@@H](C(=O)/C=C\c1ccco1)C3	SK-MEL-28 melanoma	F
CC(C)C(NC(=O)C1(NC(=O)OCc2ccccc2)CCCC1)C(=O)O (centres undefined)	SK-MEL-28 melanoma	F
O=c1c2c3c(sc2nc(N/N=C/c2ccc(Br)cc2)n1Cc1ccccc1)CCCC3	SK-MEL-28 melanoma	F
N#Cc1c(-c2cccc(Cl)c2)cc(-c2cccc(F)c2)[nH]c1=O	SK-MEL-28 melanoma	F
N#C/C(=C\c1ccc(Br)cc1)n1nnc2cc(F)c(F)cc21	SK-MEL-28 melanoma	F
CNC(=O)CCN1CCN(CC/C=C2\c3ccccc3Sc3ccc(Cl)cc32)CC1	SK-MEL-28 melanoma	T
O=C(Nc1ccc(-n2cc(-c3ccncc3)c(-c3ccc(Cl)c(O)c3)n2)cc1)N1CCOCC1	SK-MEL-28 melanoma	F
COc1ccc2[nH]c(O)c(/C=c3/cc4c(c(-c5cc(OC)c(OC)c(OC)c5)n3)=Nc3ccccc3-4)c2c1	SK-MEL-28 melanoma	F
Cc1nc2ccccc2c(/C=C/c2ccc(Cl)cc2)c1C(=O)/C=C/c1ccc(F)cc1	SK-MEL-28 melanoma	T
COC(=O)[C@]12CC[C@@H](C)[C@H](C)[C@@H]1C1=CC[C@@H]3[C@@]4(C)C(C=O)=C[C@@](C)(COC(C)=O)[C@@H]4[C@H](O)C[C@@]3(C)[C@]1(C)CC2	SK-MEL-28 melanoma	T
Cc1ccc(N2CCN(C(=S)c3cccs3)CC2)cc1	SK-MEL-28 melanoma	F
Clc1ccc(-c2c3ccc(=[N+]4CCCCC4)cc-3oc3cc(N4CCCCC4)ccc23)cc1	SK-MEL-28 melanoma	T
O=C1CCC2=C3C4CCCCC4C(=O)C4CCCC(OC2C1)C34 (centres undefined)	SK-MEL-28 melanoma	F
CNS(=O)(=O)c1n[nH]nc1-c1cc(C(C)(C)C)c(O)c(C(C)(C)C)c1	SK-MEL-28 melanoma	F
COc1cc2ncn3c(=O)c4c5c(sc4nc3c2cc1OC)CCCC5	SK-MEL-28 melanoma	F
NC(=N\N=C/c1cccc([N+](=O)[O-])c1)/C(N)=N\N=C/c1cccc([N+](=O)[O-])c1	SK-MEL-28 melanoma	F
CCOC(=O)c1c2c(n3ccc(NC(=O)OC(C)(C)C)cc13)C(=O)c1ncccc1C2=O	SK-MEL-28 melanoma	T

----------
- System: SF-539 CNS
- ASSAY_OVERVIEW: NCI-60 one-dose screen, 48 h
- DETAILS: 10 µM unless noted
- Protocol: Cells are grown in 96 well plates and exposed to the test compound for 48 hours. Compounds are tested at a single concentration, which is 10^-5 M for most compounds. The reported endpoint is percent growth (GI% or GIPRCNT), where numbers from 0 - 100% represent growth inhibition, and numbers from -100% - 0 represent cell death. For example, a value of 40 represents 60% growth inhibition. A value of 0 means no net growth occurred over the course of the experiment. […]
Compounds without any hit were thinned out: in the full panel of roughly 83,000, 20% have a hit. Active and inactive are the calls of the source. Rule for the calls: active = growth percent below 10; inactive = the rest.
Outcomes: active, inactive

MOLECULE	LABEL_VALUE
COc1cc(/C=C/C(=O)c2ccc(Nc3nc(Nc4ccc(F)cc4)nc(Nc4ccc(Cl)cc4)n3)cc2)cc(OC)c1OC	inactive
N#Cc1c(-c2cccc(Cl)c2)cc(-c2cccc(F)c2)[nH]c1=O	inactive
O=C(CSc1nnc(-c2ccc(NC(=O)c3cccnc3)cc2)o1)N[C@@H](Cc1ccc(O)cc1)C(=O)O	inactive
COC(=O)c1ccc(C2Nc3ccc(S(=O)(=O)Nc4ccc(C)c(C)c4)cc3C3OCCC23)cc1 (stereo not drawn)	inactive
N#Cc1c(N)nc(NCCO)nc1-c1ccc(F)cc1	inactive
C=C(C)[C@@H]1CC[C@]2(C(=O)NC3CCCCC3)CC[C@]3(C)[C@H](CC[C@@H]4[C@@]5(C)CCC(=O)C(C)(C)[C@@H]5CC[C@]43C)[C@@H]12	inactive
O=c1[nH]ccc2nc(N3CCC(O)CC3)nc(Nc3ccc(N4CCOCC4)cc3)c12	inactive
Cn1ccc2c(c1=O)C(=O)c1nccc3c1c-2nc1ccccc13	active
Nc1n[nH]c2cc(F)c([C@@H]3Nc4c(F)cc5[nH]ncc5c4[C@H]4C5CCC(C5)[C@@H]34)cc12 (stereo partly drawn)	active
COc1ccc2cc(-c3cc(OC)c(OC)c(OC)c3)c(=O)oc2c1	inactive
COc1cc(-c2nc(N3CCN(C)CC3)c3ccccc3n2)cc(OC)c1OC	inactive
COc1ccc(C(=O)/C=C/c2c(C(F)(F)F)nc3sccn23)cc1OC	active
NC(=O)c1ccc[n+]([C@@H]2O[C@H](COP(=O)([O-])OP(=O)(O)OC[C@H]3O[C@@H](n4cnc5c(N)ncnc54)[C@H](O)[C@@H]3O)[C@@H](O)[C@H]2O)c1	inactive
COc1cc(/C=N/NC(=O)Cn2c(C(C)C)nc3ccccc32)ccc1O	inactive
O=C(/C=C/c1cccc(O)c1)c1cccc(-n2cc(-c3ccc4ccccc4c3)[nH]c2=O)c1	active
COc1cc(/C=C/C(=O)c2c(C)nc3ccccc3c2/C=C/c2ccc(C)cc2)cc(OC)c1OC	inactive
Cc1ccc2nc(C)c(-c3nnc(SCc4ccc(C#N)cc4)o3)n2c1	inactive
COC(=O)[C@H](CSC)N(C)C(=O)[C@@H]1CSSC[C@@H](NC(=O)c2nc3ccccc3cc2O)C(=O)NCC(=O)N1C	inactive

----------
- System: NCI-H226 lung
- ASSAY_OVERVIEW: NCI-60 one-dose screen, 48 h
- DETAILS: 10 µM unless noted
About 83,000 compounds went through this panel and 20% of them were active in at least one assay; those are over-represented in the sample as a whole. Activity calls are given as the source filed them. Rule for the calls: active = growth percent below 10; inactive = the rest.
Outcomes: Y for active, N for inactive

> print(dat)
                            smiles.notation   assay.system  label.value
1  CC/C=C\C[C@H](O)C/C=C1/C(=O)C=C[C@@H]1C/C=C\CCCC(=O)OC  NCI-H226 lung            Y
2  C=CCNc1nc(NN2C(=O)c3cccc4cccc(c34)C2=O)nc(-n2cnc3ccccc32)n1  NCI-H226 lung            N
3  COc1ccc(-c2ccc3c(c2)sc2nc(-c4ccc(F)cc4)cn23)cc1  NCI-H226 lung            N
4  Cc1ccc(S(=O)(=O)Oc2cc(OS(=O)(=O)c3ccc(C)cc3)cc(OS(=O)(=O)c3ccc(C)cc3)c2)cc1  NCI-H226 lung            N
5  CCN(CC)c1ccc2nc3c4ccccc4c(=NC(=O)c4ccccc4-c4c5ccc(N(CC)CC)cc5[o+]c5cc(N(CC)CC)ccc45)cc-3oc2c1  NCI-H226 lung            N
6  Cc1ccc(-c2cc(-c3ccccc3C)[nH]c(=O)c2C#N)s1  NCI-H226 lung            N
7  CCCCCCCCn1ccc2cc(NC(=O)Cn3cc(CN4CCCC4)nn3)ccc21  NCI-H226 lung            N
8  O=C1c2cccc(NCCN=Cc3cc([N+](=O)[O-])ccc3O)c2C(=O)c2c(NCCN=Cc3cc([N+](=O)[O-])ccc3O)cccc21  NCI-H226 lung            N

----------
- Test system: U251 CNS
- ASSAY_OVERVIEW: NCI-60 one-dose screen, 48 h (100 = growth as untreated, 0 = no growth, -100 = all killed)
- DETAILS: 10 µM unless noted
The panel holds about 83,000 compounds, 20% with a hit somewhere; the sample as a whole holds those more often.
Measured growth accompanies every entry in the list below.
READOUT_NAME: growth (%)

COMPOUND	READOUT_NAME	OBSERVED_VALUE
COC(=O)[C@]12CC[C@@H](C)[C@H](C)[C@@H]1C1=CC[C@@H]3[C@@]4(C)C(C=O)=C[C@@](C)(COC(=O)/C=C/c5ccccc5)[C@@H]4[C@H](O)C[C@@]3(C)[C@]1(C)CC2	growth	2.16
NC(=O)c1ccc[n+](Cc2ccc(Cl)cc2Cl)c1	growth	89.6
O=c1[nH]c2ccccc2n1C1CCN(CCOc2ccccc2)CC1	growth	88.9
COc1ccc(-c2ccc3c(c2)sc2nc(-c4ccc(F)cc4)cn23)cc1	growth	83.3
c1ccc(Nc2nc(-c3ccccn3)cs2)nc1	growth	7.62
COc1ccc(NC(=O)CSc2nnc(-c3cc(-c4ccc(S(N)(=O)=O)cc4)nc4ccccc34)n2-c2ccccc2)cc1	growth	85.5
COc1cc(/C=C/C(=O)c2ccc(Nc3nc(Nc4ccc(F)cc4)nc(Nc4ccc(Cl)cc4)n3)cc2)cc(OC)c1OC	growth	27.5
Fc1ccc(CNc2c3ccccc3nc3ccccc23)cc1F	growth	30.3
COC(=O)c1c2c(c(C)[n+]([O-])c1C)C(=O)C(NCc1ccc(F)c(Cl)c1)=CC2=O	growth	-20.4
COc1cc(Cn2ncc3ccc(NC(=O)c4cc5ccccc5oc4=N)cc32)cc(OC)c1OC	growth	62.9
Cc1nn(-c2ccccc2)c(Cl)c1/C=C(/NC(=O)c1ccccc1)c1nc2ccccc2[nH]1	growth	92.4
CCCc1cc2c(=O)c(C(=O)OC)c[nH]c2cc1N(CC)CC	growth	104
Cc1ccc(S(=O)(=O)N/N=C\c2cc(Cl)ccc2O)cc1	growth	90.4
CC(=O)c1ccc(NCC(=O)Nc2ccccn2)cc1	growth	102
N=C1CCC(=N)c2c1c(O)c1ccccc1c2O	growth	100
CCCCOc1nc2ccccc2cc1C1CNC(=O)c2ccccc2N1 (stereo not given)	growth	18.6
COc1ccc2occ(C3=C(c4c[nH]c5ccccc45)C(=O)N(O)C3=O)c2c1	growth	91.7
CCCCCCCCCCCC(c1ccccc1)[N+](C)(C)C (stereo not given)	growth	18.3
O=C1Nc2ccccc2/C1=C/c1cn(C(=O)c2c(Cl)cccc2Cl)c2ccccc12	growth	35.8
COc1ccc(-c2csc(C3=C(O)CN(C(C)C)C3=N)n2)cc1OC	growth	98.3
Cc1c(C(=O)OC(=NC2CCCCC2)NC2CCCCC2)sc2c1c(=O)nc1c(C#N)n[nH]n12	growth	107
N#CC1=C(NC=O)Oc2c(ccc3ccccc23)C1c1ccccc1 (stereo not given)	growth	21.6
N#Cc1nc(C#N)c(Sc2ccccc2)c(Sc2ccccc2)c1Sc1ccccc1	growth	-81.9
CC(=O)C(C)Cc1cc2c(cc1C)C(C)(C)CCC2(C)C (stereo not given)	growth	97.1
O=C(/C=C/c1ccc(Cl)nc1)c1ccc(Cl)cc1Cl	growth	64
O=C(CC(SCc1ccccc1)c1ccccc1)c1ccccc1 (stereo not given)	growth	86.5
Cc1ccc2nc3ccccc3c(NCc3ccccc3)c2c1	growth	37
O=C(Nc1cccc(C(F)(F)F)c1)Nc1cccc(C(F)(F)F)c1	growth	-15.3
COc1cc(-c2nn(-c3ccccc3)cc2-c2ccnc(NCCNS(=O)(=O)c3ccc(Cl)cc3)n2)ccc1Cl	growth	28.4
N#C/C(=C/C=C/c1cccc(Cl)c1)S(=O)c1ccccc1 (stereo not given)	growth	-89.6
Cc1ccc2nc(NC(=O)CSc3nc(Nc4ccc([N+](=O)[O-])cc4)c(C#N)c(-c4ccccc4)n3)sc2c1	growth	93.2
Cc1occc1-c1n[nH]c(=S)n1N1C(=O)CSC1=S	growth	100
C=C1C(=O)O[C@H]2[C@H]1CC/C(COC(=O)C(=O)c1c[nH]c3ccc(OC)cc13)=C\CC[C@@]1(C)O[C@@H]21	growth	-97.8
CNc1ccc(NC)c2c1C(=O)c1ccccc1C2=O	growth	87
COc1ccc(C2=NN(C(=O)c3cc(OC)c(OC)c(OC)c3)C(c3ccc(Cl)cc3)C2)cc1OC (stereo not given)	growth	24
CC1=C(SCCC(=O)OC(C[Se]C2=C(C)C(=O)c3ccccc3C2=O)C(=O)NCCCCCC(=O)OCc2ccccc2)C(=O)c2ccccc2C1=O (stereo not given)	growth	22.9
O=C(CSc1nnc(-c2ccc(NC(=O)c3cccnc3)cc2)o1)N[C@@H](Cc1ccc(O)cc1)C(=O)O	growth	103
CCN1C(=O)N(CC)C2Nn3c(s/c(=C\c4cccc([N+](=O)[O-])c4)c3=O)=NC21 (stereo not given)	growth	33.5
NC(N)=Nc1nc2ccccc2n2c1nc1ccccc12	growth	27.8
Cc1ccc2c(c1)Sc1c(ccc3ccccc13)N2	growth	45.3

Each recorded value in this set is attributed to PubChem BioAssay (NCI).
